# Assayed target: c-Myc template DNA (c-myc quadruplex)
# Protocol text: Quadruplex binding / stop assay (Taq polymerase arrest, capillary electrophoresis)
# Stated conditions: read-out: S DATA; Table 1D, stop assay data
Recorded IC50, one value per entry.

Some entries whose results are on file:
| Compound | Parameter | Test value |
| --- | --- | --- |
| O=C(NCCN1CCCC1)c1cn2c3c(c(NCCN4CCOCC4)c(F)cc3c1=O)Oc1ccccc1-2 [compound 1609] | IC50 | > 15 µM |
| CN1CCN(CCCNc2c(F)cc3c(=O)c(C(=O)NCCC4CCCN4C)cn4c3c2Oc2ccccc2-4)CC1 (stereo not shown) [compound 1576] | IC50 | > 15 µM |
| CN1CCN(C(=O)c2cn3c4c(c(NCCN5CCOCC5)c(F)cc4c2=O)Oc2ccccc2-3)CC1 [compound 1614] | IC50 | > 15 µM |

We now examine a further compound.
Specify reported IC50 for the compound shown: CN1CCCC1CCNC(=O)c1cn2c3c(c(NCCN4CCCCC4)c(F)cc3c1=O)Oc1cc3ccccc3cc1-2 (stereo not shown) [compound 1488]
0.75 µM
